The binders listed here are annotated with their Kd.
ASSAYED TARGET: T1, c-erbB-2 ECD with a Ser-Gly-His6 C-terminal fusion (UniProt P04626 23-652)
T1 construct: extracellular domain; Expressed from CHO cells, IMAC purified; coupled to a CM5 chip, coated on plates, or biotinylated with NHS-LC-biotin; also called c-erbB-2 extracellular domain; biotinylated c-erbB-2 ECD
ASSAY NOTES: SPR BIAcore
Field note: include the unit after the figure.

Item: C6MH3-B25 (scFv, C6ML3-9 sFv, VH CDR3 library B mutant) scFv: QVQLLQSGAELKKPGESLKISCKGSGYSFTSYWIAWVRQMPGKGLEYMGLIYPGDSDTKYSPSFQGQVTISVDKSVSTAYLQWSSLKPSDSAVYFCARHDVGYCLTTRCAKWPEYFQHWGQGTLVTVSSGGGGSGGGGSGGGGSQSVLTQPPSVSAAPGQKVTISCSGSSSNIGNNYVSWYQQLPGTAPKLLIYGHTNRPAGVPDRFSGSKSGTSASLAISGFRSEDEADYYCASWDYTLSGWVFGGGTKLTVLG | Kd: 0.36 nM

# context switch: different binder, same Kd
Item: C6MH3-B41 (scFv, C6ML3-9 sFv, VH CDR3 library B mutant) scFv: QVQLLQSGAELKKPGESLKISCKGSGYSFTSYWIAWVRQMPGKGLEYMGLIYPGDSDTKYSPSFQGQVTISVDKSVSTAYLQWSSLKPSDSAVYFCARHDVGYCTDRPCAKWPEYFQHWGQGTLVTVSSGGGGSGGGGSGGGGSQSVLTQPPSVSAAPGQKVTISCSGSSSNIGNNYVSWYQQLPGTAPKLLIYGHTNRPAGVPDRFSGSKSGTSASLAISGFRSEDEADYYCASWDYTLSGWVFGGGTKLTVLG | Kd: 0.53 nM

From: patent US6512097
